B1: Ventral anterior homeobox 1, residues 102 to 157; numbered along this chain, Q5SQQ9 (parent)
chain: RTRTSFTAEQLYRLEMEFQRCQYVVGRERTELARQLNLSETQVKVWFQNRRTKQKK

variants of: B1; test: abundance fitness (aPCA) (normalised: wild type 0, dead -1); higher = more abundant; growth selection in yeast, the domain comes from the species named; details: Homo sapiens
Class met: abundance fitness at least -0.09. Class not met: abundance fitness below -0.09.

Request: Does the reported abundance fitness for "L36Q" fall at or above the -0.09 mark?
Response: not met

Request: Check the entry "Q19E" : does abundance fitness equal or exceed -0.09?
Response: met

Request: Hi, just wondering whether "E9K" shows abundance fitness of -0.09 or higher.
Response: not met

Request: I'd appreciate it if you could say whether "T7L" has abundance fitness at least equal to -0.09.
Response: not met

Request: Does the variant "T41G" have recorded abundance fitness that is -0.09 or more?
Response: met

Request: Say whether "T30P" shows abundance fitness of -0.09 or more.
Response: not met

Request: Kindly determine if abundance fitness recorded for "Q48G" is above or exactly -0.09.
Response: not met

Request: # bool: abundance fitness of "R13M" >= -0.09
Response: met

Request: Item "T2F" with abundance fitness of -0.09 or above?
Response: not met

Request: Please check the record "V45K" and state if its abundance fitness is at or above -0.09.
Response: not met

Request: Record "S5Y" ; criterion: abundance fitness no lower than -0.09. Met?
Response: met
